Origin of measurements: the NIST ThermoML archive (doi:10.1021/je101008y)

experiment: activity coefficient (dimensionless); of the first substance listed, at infinite dilution; xn = mol fraction of the nth substance listed; details: 358.2 K; Liquid; Chromatography; x1 = 0
If the reported activity coefficient equals or exceeds 10, assign t. If not, assign f.

Reference set (5 entries):
- compound: "CCCC(C)=O [pentan-2-one] + CCCC[N+]1(C)CCCCC1.N#C[S-]"
  cat: "f"
- compound: "CCCOCCC [dipropyl ether] + CCCC[N+]1(C)CCCCC1.N#C[S-]"
  cat: "t"
- compound: "CCC(=O)CC [pentan-3-one] + CCCC[N+]1(C)CCCCC1.N#C[S-]"
  cat: "f"
- compound: "CC(C)=O [acetone] + CCCC[N+]1(C)CCCCC1.N#C[S-]"
  cat: "f"
- compound: "CCOCC [diethyl ether] + CCCC[N+]1(C)CCCCC1.N#C[S-]"
  cat: "t"

-- ask activity coefficient >= 10 for COC(C)(C)C [2-methoxy-2-methylpropane] + CCCC[N+]1(C)CCCCC1.N#C[S-] ?
-- reply t

----------
test: activity coefficient (dimensionless); of the first substance listed, at infinite dilution; xn = mol fraction of the nth substance listed; details: 328.15 K; Liquid; Chromatography; x1 = 0
# reported activity coefficient; entries follow
# answer = number (no unit)

In the examples that follow, each entry is paired with its recorded activity coefficient.
- compound: "CO [methanol] + CCCC[N+]1(C)CCCCC1.N#C[S-]"
  value-reported: 0.368
- compound: "Cc1ccc(C)cc1 [1,4-dimethylbenzene] + CCCC[N+]1(C)CCCCC1.N#C[S-]"
  value-reported: 5.04
- compound: "Cc1ccccc1 [toluene] + CCCC[N+]1(C)CCCCC1.N#C[S-]"
  value-reported: 3.16
- compound: "C1CCOC1 [tetrahydrofuran] + CCCC[N+]1(C)CCCCC1.N#C[S-]"
  value-reported: 2.31
- compound: "C=CCCCCCC [oct-1-ene] + CCCC[N+]1(C)CCCCC1.N#C[S-]"
  value-reported: 83.7

Value of activity coefficient reported for the compound CCCCCCC [heptane] + CCCC[N+]1(C)CCCCC1.N#C[S-] is 142

// activity coefficient value for C=CCCCC [hex-1-ene] + CCCC[N+]1(C)CCCCC1.N#C[S-] : 37

// recorded activity coefficient for c1ccsc1 [thiophene] + CCCC[N+]1(C)CCCCC1.N#C[S-] : 1.13

For record C1CCCC1 [cyclopentane] + CCCC[N+]1(C)CCCCC1.N#C[S-] the listed activity coefficient is 24.2

activity coefficient in this record for C1CCCCCCC1 [cyclooctane] + CCCC[N+]1(C)CCCCC1.N#C[S-] : 54

activity coefficient reading for Cc1ccccc1C [1,2-dimethylbenzene] + CCCC[N+]1(C)CCCCC1.N#C[S-] : 4.18

----------
test: activity coefficient (dimensionless); of the first substance listed, at infinite dilution; xn = mol fraction of the nth substance listed; details: 318.15 K; Liquid; Chromatography; x1 = 0
Each record is given yes (1) if its reported activity coefficient is strictly below 5. Records at or above 5 are given no (0).

- compound: "CCO [ethanol] + CCCC[N+]1(C)CCCCC1.N#C[S-]"
  cat: "yes (1)"
- compound: "CCc1ccccc1 [ethylbenzene] + CCCC[N+]1(C)CCCCC1.N#C[S-]"
  cat: "no (0)"
- compound: "C1CCCCCC1 [cycloheptane] + CCCC[N+]1(C)CCCCC1.N#C[S-]"
  cat: "no (0)"

Now turn to the next compound.
-- ask Please indicate whether the reported activity coefficient of Cc1cccc(C)c1 [1,3-dimethylbenzene] + CCCC[N+]1(C)CCCCC1.N#C[S-] is strictly below 5.
-- reply no (0)
